System: MCF7
Test: Antiproliferative activity against human MCF7 cells incubated for 5 days by CCK-8 method
Format: functional, cell-based
Details: MCF7, 120 h
IC50 vs 2000 nM: less than gives Criterion met; not less than gives Criterion not met.

{"chemical_structure": "COc1ccc(CCc2nc3cc(-c4c(C)noc4C)ccc3n2[C@H]2CC[C@H](O)CC2)cc1Cl", "assigned_category": "Criterion not met"}
{"chemical_structure": "COc1ccc(N2C(=O)C[C@H]2c2nc3cc(-c4c(C)noc4C)ccc3n2[C@H]2CC[C@H](OC)CC2)cc1Cl", "assigned_category": "Criterion met"}
{"chemical_structure": "COc1ccc(CCc2nc3cc(-c4c(C)noc4C)ccc3n2[C@H]2CC[C@H](OC)CC2)cc1Cl", "assigned_category": "Criterion not met"}

I'd appreciate it if you could check whether "COc1ccc(CCc2nc3cc(-c4c(C)noc4C)ccc3n2C[C@H](C)N2CCOCC2)cc1Cl" has IC50 smaller than 2000 nM.
Criterion not met

====

Target: Histone acetyltransferase p300 (Homo sapiens, UniProt Q09472)
Sequence (Q09472 whole entry): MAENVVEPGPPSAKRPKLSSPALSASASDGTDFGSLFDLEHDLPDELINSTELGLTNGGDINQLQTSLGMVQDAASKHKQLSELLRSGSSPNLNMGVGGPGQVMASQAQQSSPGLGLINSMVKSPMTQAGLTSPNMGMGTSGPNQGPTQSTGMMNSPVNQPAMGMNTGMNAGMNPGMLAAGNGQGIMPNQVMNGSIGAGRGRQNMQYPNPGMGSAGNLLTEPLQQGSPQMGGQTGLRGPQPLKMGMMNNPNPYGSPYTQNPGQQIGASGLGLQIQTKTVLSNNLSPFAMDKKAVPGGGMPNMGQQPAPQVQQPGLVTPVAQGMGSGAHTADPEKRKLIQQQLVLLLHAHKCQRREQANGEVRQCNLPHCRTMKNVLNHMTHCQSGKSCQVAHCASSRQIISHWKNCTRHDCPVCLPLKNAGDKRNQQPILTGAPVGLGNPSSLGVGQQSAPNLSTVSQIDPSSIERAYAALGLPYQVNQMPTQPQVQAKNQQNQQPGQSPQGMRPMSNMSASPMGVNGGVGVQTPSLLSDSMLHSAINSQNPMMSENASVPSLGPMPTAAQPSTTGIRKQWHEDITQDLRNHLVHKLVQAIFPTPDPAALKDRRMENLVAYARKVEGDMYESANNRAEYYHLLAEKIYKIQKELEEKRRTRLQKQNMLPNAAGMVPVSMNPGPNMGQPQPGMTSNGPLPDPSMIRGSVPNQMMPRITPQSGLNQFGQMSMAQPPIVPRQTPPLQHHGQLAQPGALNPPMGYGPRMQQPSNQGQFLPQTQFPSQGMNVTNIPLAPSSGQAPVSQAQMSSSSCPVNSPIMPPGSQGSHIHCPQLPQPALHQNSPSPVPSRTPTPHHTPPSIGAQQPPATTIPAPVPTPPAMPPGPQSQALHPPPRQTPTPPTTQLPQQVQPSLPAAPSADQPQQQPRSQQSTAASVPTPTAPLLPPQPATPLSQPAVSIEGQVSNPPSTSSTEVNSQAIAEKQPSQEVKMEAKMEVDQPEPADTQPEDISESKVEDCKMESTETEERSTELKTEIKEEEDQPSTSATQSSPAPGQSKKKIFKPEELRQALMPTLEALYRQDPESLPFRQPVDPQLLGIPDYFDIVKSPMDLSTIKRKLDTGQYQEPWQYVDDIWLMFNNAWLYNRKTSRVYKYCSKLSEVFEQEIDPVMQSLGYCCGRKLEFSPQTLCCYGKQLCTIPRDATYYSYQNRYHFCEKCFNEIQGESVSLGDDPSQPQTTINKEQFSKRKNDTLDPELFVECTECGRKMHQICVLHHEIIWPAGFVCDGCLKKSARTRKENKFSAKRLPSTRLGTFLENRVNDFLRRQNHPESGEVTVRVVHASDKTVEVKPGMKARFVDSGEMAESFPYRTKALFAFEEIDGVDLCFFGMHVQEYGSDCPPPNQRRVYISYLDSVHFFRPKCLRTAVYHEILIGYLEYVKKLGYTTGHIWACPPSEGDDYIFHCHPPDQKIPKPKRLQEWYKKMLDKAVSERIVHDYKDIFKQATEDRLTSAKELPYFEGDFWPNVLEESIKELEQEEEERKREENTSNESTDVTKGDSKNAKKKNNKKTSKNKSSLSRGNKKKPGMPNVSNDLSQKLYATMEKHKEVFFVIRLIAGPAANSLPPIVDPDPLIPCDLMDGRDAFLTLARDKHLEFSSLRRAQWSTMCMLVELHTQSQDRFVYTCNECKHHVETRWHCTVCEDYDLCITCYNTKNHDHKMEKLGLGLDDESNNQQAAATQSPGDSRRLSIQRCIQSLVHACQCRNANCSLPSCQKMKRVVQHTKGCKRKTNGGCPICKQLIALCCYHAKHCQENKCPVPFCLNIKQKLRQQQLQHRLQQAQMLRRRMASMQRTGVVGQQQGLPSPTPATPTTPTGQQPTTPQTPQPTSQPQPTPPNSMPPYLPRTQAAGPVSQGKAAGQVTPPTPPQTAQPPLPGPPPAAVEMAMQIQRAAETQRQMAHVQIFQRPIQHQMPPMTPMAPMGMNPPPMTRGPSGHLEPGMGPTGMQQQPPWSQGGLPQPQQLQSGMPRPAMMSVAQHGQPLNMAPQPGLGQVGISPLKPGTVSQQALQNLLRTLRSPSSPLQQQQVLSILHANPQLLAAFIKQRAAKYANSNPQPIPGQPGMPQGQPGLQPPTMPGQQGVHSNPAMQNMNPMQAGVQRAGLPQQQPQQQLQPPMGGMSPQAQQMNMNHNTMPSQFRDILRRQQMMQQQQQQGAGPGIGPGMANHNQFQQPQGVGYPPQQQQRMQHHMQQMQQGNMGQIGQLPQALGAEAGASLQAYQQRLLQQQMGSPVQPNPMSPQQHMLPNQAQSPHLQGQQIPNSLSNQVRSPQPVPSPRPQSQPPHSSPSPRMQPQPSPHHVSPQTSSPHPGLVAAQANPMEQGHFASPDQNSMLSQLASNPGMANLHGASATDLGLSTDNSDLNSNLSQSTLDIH
Assay: Inhibition of EP300 bromodomain (unknown origin) incubated for 20 mins by AlphaLISA method
compounds and their reported IC50

{"compound": "COc1ccc2c(Cc3nc4cc(-c5c(C)noc5C)ccc4n3[C@H]3CC[C@H](O)CC3)cc(=O)oc2c1", "IC50": "48 nM"}

Item under review: "COc1ccc(CCc2nc3cc(-c4c(C)noc4C)ccc3n2C2CCC(F)(F)CC2)cc1Cl" . Reported IC50?
83 nM

Item under review: Cc1noc(C)c1-c1ccc2c(c1)nc(C1CC1c1ccccc1)n2[C@H]1CC[C@H](O)CC1 (stereo partly drawn) . Reported IC50?
263 nM

====

Tested on: OPM-2
Assay: Antiproliferative activity against human OPM-2 cells incubated for 5 days by CCK-8 method
Type: functional, cell-based
Conditions: OPM-2, 120 h
IC50 vs 2000 nM: less than gives 1.0; not less than gives 0.0.

Reference set, count: 3
{"chemical_structure": "COc1ccc(CCc2nc3cc(-c4c(C)noc4C)ccc3n2C[C@H](C)N2CCOCC2)cc1Cl", "assigned_category": 0.0}
{"chemical_structure": "COc1ccc(CCc2nc3cc(-c4c(C)noc4C)ccc3n2[C@H]2CC[C@H](O)CC2)cc1Cl", "assigned_category": 1.0}
{"chemical_structure": "COc1ccc(CCc2nc3cc(-c4c(C)noc4C)ccc3n2[C@H]2CC[C@H](OC)CC2)cc1Cl", "assigned_category": 0.0}

I'd appreciate it if you could check whether "COc1ccc(N2C(=O)C[C@H]2c2nc3cc(-c4c(C)noc4C)ccc3n2[C@H]2CC[C@H](OC)CC2)cc1Cl" has IC50 smaller than 2000 nM.
1.0

I'd appreciate it if you could check whether "COc1ccc(N2C(=O)C[C@@H]2c2nc3cc(-c4c(C)noc4C)ccc3n2[C@H]2CC[C@H](OC)CC2)cc1Cl" has IC50 smaller than 2000 nM.
1.0

====

Molecular target: Histone acetyltransferase p300 (Homo sapiens, UniProt Q09472)
Experiment: Binding affinity to recombinant EP300 bromodomain (unknown origin) assessed as change in melting temperature by differential scanning fluorimetry method
compounds and their reported ΔTm
State the answer as a number, implicitly in °C.

{"chemical_structure": "CNC(=O)Nc1ccc2c(c1)nc(CCc1ccc(OC)c(Cl)c1)n2C[C@H](C)N1CCOCC1", "ΔTm / °C": 3.53}
{"chemical_structure": "COc1ccc(CCc2nc3cc(-c4c(C)noc4C)ccc3n2C[C@H](C)N2CCOCC2)cc1Cl", "ΔTm / °C": 4.5}
{"chemical_structure": "COc1ccc(CCc2nc3cc(-c4cnn(C)n4)ccc3n2C[C@H](C)N2CCOCC2)cc1Cl", "ΔTm / °C": 4.34}
{"chemical_structure": "COc1ccc(CCc2nc3cc(C4(C)COC4)ccc3n2C[C@H](C)N2CCOCC2)cc1Cl", "ΔTm / °C": 2.21}
{"chemical_structure": "CNC(=O)c1ccc2c(c1)nc(CCc1ccc(OC)c(Cl)c1)n2C[C@H](C)N1CCOCC1", "ΔTm / °C": 2.1}

Item under review: "COc1ccc(CCc2nc3cc(S(C)(=O)=O)ccc3n2C[C@H](C)N2CCOCC2)cc1Cl" . Reported ΔTm?
1.07

Item under review: "COc1ccc(CCc2nc3cc(-c4cnn(C)c4)ccc3n2C[C@H](C)N2CCOCC2)cc1Cl" . Reported ΔTm?
2.95

====

compounds and their reported IC50
Molecular target: Histone acetyltransferase p300 (Homo sapiens, UniProt Q09472)
Test: Inhibition of EP300 bromodomain (unknown origin) incubated for 20 mins by AlphaLISA method
State the answer as a number, implicitly in nM.

{"chemical_structure": "COc1ccc(CCc2nc3cc(-c4c(C)noc4C)ccc3n2[C@H]2CC[C@H](O)CC2)cc1Cl", "IC50 / nM": 48}

Item under review: "COc1ccc(CCc2nc3cc(-c4c(C)noc4C)ccc3n2C2CCN(S(C)(=O)=O)CC2)cc1Cl" . Reported IC50?
148

Item under review: "COc1ccc(N2C(=O)C[C@H]2c2nc3cc(-c4c(C)noc4C)ccc3n2[C@H]2CC[C@H](OC)CC2)cc1Cl" . Reported IC50?
49

Item under review: "COc1ccc(N2C(=O)C[C@@H]2c2nc3cc(-c4c(C)noc4C)ccc3n2[C@H]2CC[C@H](OC)CC2)cc1Cl" . Reported IC50?
81

====

molecules and their reported pIC50
Biological target: UniProt:Q09472
Assay: Inhibition of EP300 bromodomain (unknown origin) incubated for 20 mins by AlphaLISA method
pIC50 is a log-scale quantity: -log10 of the concentration expressed in molar.

{"chemical_structure": "COc1ccc(CCc2nc3cc(-c4c(C)noc4C)ccc3n2C2CCN(C(C)=O)CC2)cc1Cl", "property_label": "pIC50", "numeric_value": 7.03}
{"chemical_structure": "COc1ccc(CCc2nc3cc(-c4c(C)noc4C)ccc3n2[C@H]2C[C@H](O)C2)cc1Cl", "property_label": "pIC50", "numeric_value": 6.81}
{"chemical_structure": "COc1ccc(CCc2nc3cc(-c4c(C)noc4C)ccc3n2[C@H]2CC[C@H](C(F)(F)F)CC2)cc1Cl", "property_label": "pIC50", "numeric_value": 6.05}

Item under review: "COc1ccc(CCc2nc3cc(-c4c(C)noc4C)ccc3n2C2CC(C)(C)OC(C)(C)C2)cc1Cl" . Reported pIC50?
6.95

Item under review: "COc1ccc(CCc2nc3cc(-c4c(C)noc4C)ccc3n2[C@H]2CC[C@H](OC)CC2)cc1Cl" . Reported pIC50?
7.01

====

compounds and their reported ΔTm
Target: Histone acetyltransferase p300 (Homo sapiens)
Test: Binding affinity to recombinant EP300 bromodomain (unknown origin) assessed as change in melting temperature by differential scanning fluorimetry method
State the answer as a number, implicitly in °C.

Item under review: "COc1ccc(CCc2nc3cc(CC#N)ccc3n2C[C@H](C)N2CCOCC2)cc1Cl" . Reported ΔTm?
1.44

Item under review: "COc1ccc(CCc2nc3cc(NS(C)(=O)=O)ccc3n2C[C@H](C)N2CCOCC2)cc1Cl" . Reported ΔTm?
2.51

Item under review: "COc1ccc(CCc2nc3cc(NC(C)=O)ccc3n2C[C@H](C)N2CCOCC2)cc1Cl" . Reported ΔTm?
2.97

Item under review: "COc1ccc(CCc2nc3cc(C(C)=O)ccc3n2C[C@H](C)N2CCOCC2)cc1Cl" . Reported ΔTm?
4.1
